# Condition notes: pH 2.7
Marks after values point to notes of the source that are not given here.
Quick list: Log P per entry.

Some compounds with recorded Log P:
[
  {
    "Compound": "CCOC(=O)C(Br)C(=O)N1CCC(c2nc(C3=NOC(c4ccccc4OS(C)(=O)=O)C3)cs2)CC1 (stereo not drawn) [Example I-33]",
    "Log P": "2.72^[a]"
  },
  {
    "Compound": "CC(C)(C)OC(=O)C(Br)C(=O)N1CCC(c2nc(C3=NOC(c4ccccc4OS(C)(=O)=O)C3)cs2)CC1 (stereo not drawn) [Example I-74]",
    "Log P": "3.24^[a]"
  },
  {
    "Compound": "CCOC(=O)C(Br)C(=O)N1CCC(c2nc(C3=NOC(c4c(F)cccc4OS(C)(=O)=O)C3)cs2)CC1 (stereo not drawn) [Example I-27]",
    "Log P": "2.72^[a]"
  }
]

Indicate the recorded Log P value for this compound: C#CCOc1cccc(Cl)c1C1CC(c2csc(C3CCN(C(=O)C(Br)C(=O)OCc4ccccc4)CC3)n2)=NO1 (stereo not drawn) [Example I-69]
3.85^[a]

Determine from records and report Log P for C#CCOc1cccc(F)c1C1CC(c2csc(C3CCN(C(=O)CC(=O)OC(CC)CCCCC)CC3)n2)=NO1 (stereo not drawn) [Example I-40]
4.42^[a]

State its Log P: CC(C)OC(=O)C(Br)C(=O)N1CCC(c2nc(C3=NOC(c4c(F)cccc4OS(C)(=O)=O)C3)cs2)CC1 (stereo not drawn) [Example I-23]
2.97^[a]

* * *

# Condition notes: pH 2.7
Marks after values point to notes of the source that are not given here.
Observation type: Log P

Consider the reported Log P for these molecules:
[
  {
    "Molecule": "CC(C)OC(=O)CC(=O)N1CCC(c2nc(C3=NOC(c4c(F)cccc4OS(C)(=O)=O)C3)cs2)CC1 (stereo not drawn) [Example I-47]",
    "Observation type": "Log P",
    "Assay value": "2.53^[a]"
  },
  {
    "Molecule": "C#CCOc1cccc(Cl)c1C1CC(c2csc(C3CCN(C(=O)CC(=O)OCc4ccccc4)CC3)n2)=NO1 (stereo not drawn) [Example I-78]",
    "Observation type": "Log P",
    "Assay value": "3.45^[a]"
  },
  {
    "Molecule": "CCCCCC(CC)OC(=O)C(Br)C(=O)N1CCC(c2nc(C3=NOC(c4ccccc4OS(C)(=O)=O)C3)cs2)CC1 (stereo not drawn) [Example I-39]",
    "Observation type": "Log P",
    "Assay value": "4.55^[a]"
  },
  {
    "Molecule": "CCCCCC(CC)OC(=O)C(C(=O)N1CCC(c2nc(C3=NOC(c4ccccc4C=O)C3)cs2)CC1)n1nc(C(F)F)cc1C(F)F (stereo not drawn) [Example I-21]",
    "Observation type": "Log P",
    "Assay value": "5.20^[a]"
  },
  {
    "Molecule": "C#CCOc1cccc(F)c1C1CC(c2csc(C3CCN(C(=O)CC(=O)OCC)CC3)n2)=NO1 (stereo not drawn) [Example I-42]",
    "Observation type": "Log P",
    "Assay value": "2.58^[a]"
  }
]

Here is another molecule to look at.
Give the reported value of Log P for this record: C#CCOc1cccc(F)c1C1CC(c2csc(C3CCN(C(=O)C(Br)C(=O)OC(C)C)CC3)n2)=NO1 (stereo not drawn) [Example I-38]
3.30^[a]

* * *

Measured Eff. % (inhibition of fungal growth) accompanies every entry in the list below.
# Tested on: Phytophthora infestans
# Protocol notes: microbe, parasite or virus in culture
# Assay type: cell-based
# Condition notes: 0.25 μg/mL of active ingredient; 8 days incubation
Output spec: scalar in %, unitless text.

Would you please look over these solved cases?
[
  {
    "Compound": "CS(=O)(=O)Oc1cccc(Cl)c1C1CC(c2csc(C3CCN(C(=O)C(C(=O)OCc4ccccc4)n4nc(C(F)F)cc4C(F)F)CC3)n2)=NO1 (stereo not drawn)",
    "Value unit": "%",
    "Eff. % (inhibition of fungal growth)": 100
  },
  {
    "Compound": "CC(C)OC(=O)C(Br)C(=O)N1CCC(c2nc(C3=NOC(c4c(F)cccc4OS(C)(=O)=O)C3)cs2)CC1 (stereo not drawn)",
    "Value unit": "%",
    "Eff. % (inhibition of fungal growth)": 100
  }
]

API: the following record is the query input.
Answer with the recorded Eff. % (inhibition of fungal growth) of COCCOC(=O)C(C(=O)N1CCC(c2nc(C3=NOC(c4ccccc4OS(C)(=O)=O)C3)cs2)CC1)n1nc(C(F)F)cc1C(F)F (stereo not drawn) only.
100

* * *

# Condition notes: pH 2.7
Marks after values point to notes of the source that are not given here.
Observation type: Log P

# count of solved cases: 5
[
  {
    "Compound": "CCCCCC(CC)OC(=O)CC(=O)N1CCC(c2nc(C3=NOC(c4ccccc4C=O)C3)cs2)CC1 (stereo not drawn)",
    "Log P": "4.27^[a]"
  },
  {
    "Compound": "CC(C)OC(=O)C(Br)C(=O)N1CCC(c2nc(C3=NOC(c4ccccc4OS(C)(=O)=O)C3)cs2)CC1 (stereo not drawn)",
    "Log P": "2.99^[a]"
  },
  {
    "Compound": "C#CCOc1cccc(F)c1C1CC(c2csc(C3CCN(C(=O)C(C(=O)OC(C)C)n4nc(C(F)F)cc4C(F)F)CC3)n2)=NO1 (stereo not drawn)",
    "Log P": "3.81^[a]"
  },
  {
    "Compound": "COCCOC(=O)CC(=O)N1CCC(c2nc(C3=NOC(c4ccccc4OS(C)(=O)=O)C3)cs2)CC1 (stereo not drawn)",
    "Log P": "2.11^[a]"
  },
  {
    "Compound": "C#CCOc1cccc(F)c1C1CC(c2csc(C3CCN(C(=O)C(C(=O)OCC)n4nc(C(F)F)cc4C(F)F)CC3)n2)=NO1 (stereo not drawn)",
    "Log P": "3.57^[a]"
  }
]

As a next step, examine the compound that follows.
Give the reported value of Log P for this record: CC(C)(C)OC(=O)C(C(=O)N1CCC(c2nc(C3=NOC(c4ccccc4OS(C)(=O)=O)C3)cs2)CC1)n1nc(C(F)F)cc1C(F)F (stereo not drawn)
3.74^[a]

* * *

# Condition notes: pH 2.7
Marks after values point to notes of the source that are not given here.
Catalogue of Log P readings, one per entry.

[
  {
    "Compound": "CCOC(=O)C(C(=O)N1CCC(c2nc(C3=NOC(c4ccccc4OS(C)(=O)=O)C3)cs2)CC1)n1nc(C)nc1C (stereo not drawn)",
    "Log P": "2.24^[a]"
  },
  {
    "Compound": "C#CCOc1cccc(F)c1C1CC(c2csc(C3CCN(C(=O)CC(=O)OCCOC)CC3)n2)=NO1 (stereo not drawn)",
    "Log P": "2.43^[a]"
  },
  {
    "Compound": "C#CCOc1ccccc1C1CC(c2csc(C3CCN(C(=O)CC(=O)OC(CC)CCCCC)CC3)n2)=NO1 (stereo not drawn)",
    "Log P": "4.56^[a]"
  },
  {
    "Compound": "CCCCCC(CC)OC(=O)C(C(=O)N1CCC(c2nc(C3=NOC(c4c(F)cccc4OS(C)(=O)=O)C3)cs2)CC1)n1nc(C(F)F)cc1C(F)F (stereo not drawn)",
    "Log P": "4.04^[a]"
  },
  {
    "Compound": "CCOC(=O)CC(=O)N1CCC(c2nc(C3=NOC(c4c(F)cccc4OS(C)(=O)=O)C3)cs2)CC1 (stereo not drawn)",
    "Log P": "2.29^[a]"
  }
]

Below: the item to evaluate.
Entry CCCCCC(CC)OC(=O)CC(=O)N1CCC(c2nc(C3=NOC(c4ccccc4OS(C)(=O)=O)C3)cs2)CC1 (stereo not drawn) needs its Log P filled in; supply it.
4.07^[a]

* * *

# Condition notes: pH 2.7
Marks after values point to notes of the source that are not given here.
Observation type: Log P

Here's what some known entries look like.
[
  {
    "Molecule": "CCOC(=O)CC(=O)N1CCC(c2nc(C3=NOC(c4ccccc4C=O)C3)cs2)CC1 (stereo not drawn)",
    "Observation type": "Log P",
    "Assay value": "2.34^[a]"
  },
  {
    "Molecule": "CC(C)OC(=O)C(Br)C(=O)N1CCC(c2nc(C3=NOC(c4ccccc4C=O)C3)cs2)CC1 (stereo not drawn)",
    "Observation type": "Log P",
    "Assay value": "3.11^[a]"
  },
  {
    "Molecule": "C#CCOc1cccc(F)c1C1CC(c2csc(C3CCN(C(=O)CC(=O)OC(C)C)CC3)n2)=NO1 (stereo not drawn)",
    "Observation type": "Log P",
    "Assay value": "2.85^[a]"
  },
  {
    "Molecule": "C#CCOc1ccccc1C1CC(c2csc(C3CCN(C(=O)C(Br)C(=O)OC(C)(C)C)CC3)n2)=NO1 (stereo not drawn)",
    "Observation type": "Log P",
    "Assay value": "3.68^[a]"
  },
  {
    "Molecule": "CCCCCC(CC)OC(=O)C(Br)C(=O)N1CCC(c2nc(C3=NOC(c4ccccc4C=O)C3)cs2)CC1 (stereo not drawn)",
    "Observation type": "Log P",
    "Assay value": "4.83^[a]"
  }
]

Okay, now this molecule:
For the molecule CC(C)(C)OC(=O)CC(=O)N1CCC(c2nc(C3=NOC(c4ccccc4OS(C)(=O)=O)C3)cs2)CC1 (stereo not drawn) , report Log P.
2.80^[a]

The values you see were collected from patent US9924721B2.
